- assay procedure: Inhibition of ROCK
attribute measured: pIC50

                                    molecule  attribute_measured  result
 0  COc1cc(CN2CCCC(Nc3ccc4[nH]ncc4c3)C2)cc(OC)c1 (centres undefined)               pIC50     7.1
 1  Clc1ccc(CN2CCC(Nc3cccc4cnccc34)C2)cc1 (centres undefined)               pIC50    7.19
 2  Fc1ccc(CN2CCC(Nc3cccc4cnccc34)C2)cc1 (centres undefined)               pIC50    7.02
 3      c1ccc(CN2CCC(Nc3cccc4cnccc34)CC2)cc1               pIC50    6.85
 4  c1cncc(CN2CCCC(Nc3ccc4[nH]ncc4c3)C2)c1 (centres undefined)               pIC50    7.14
 5    CCCN[C@H]1CC[C@@H](Nc2cccc3cnccc23)CC1               pIC50    6.74
 6  CC(C)CCN1CCCC(Nc2ccc3[nH]ncc3c2)C1 (centres undefined)               pIC50    6.47
 7    O=C(NCc1ccc(Cl)cc1Cl)Nc1ccc2[nH]ncc2c1               pIC50    6.66
 8             CCN1CCC(Nc2ccc3[nH]ncc3c2)CC1               pIC50    6.15
 9  Cc1n[nH]c2ccc(NC3CCCN(Cc4ccccc4)C3)cc12 (centres undefined)               pIC50    6.82
10  c1cc(N[C@H]2CC[C@H](NC3CC3)CC2)c2ccncc2c1               pIC50    7.15
11          O=C(NCc1ccccc1)Nc1ccc2[nH]ncc2c1               pIC50    6.59
12  CNC1CCC(Nc2cccc3cnccc23)CC1 (centres undefined)               pIC50     6.7
13  Clc1ccccc1CN1CCCC(Nc2ccc3[nH]ncc3c2)C1 (centres undefined)               pIC50    7.89
14  Nc1cccc(CN2CCCC(Nc3ccc4[nH]ncc4c3)C2)c1 (centres undefined)               pIC50    7.46
15  O=C(Nc1ccc2[nH]ncc2c1)C1CCN(Cc2ccccc2)CC1               pIC50    6.87
16           CC(C)CN1CCC(Nc2cccc3cnccc23)CC1               pIC50    6.68
17  Fc1ccc(CN2CCCC(Nc3ccc4[nH]ncc4c3)C2)cc1 (centres undefined)               pIC50     7.6
18  c1ccc(CN[C@H]2CC[C@@H](Nc3ccc4[nH]ncc4c3)CC2)cc1               pIC50    6.49
19  Cc1ccc(CN2CCCC(Nc3ccc4[nH]ncc4c3)C2)cc1 (centres undefined)               pIC50    8.05
20  Clc1cccc(CN2CCC(Nc3ccc4[nH]ncc4c3)CC2)c1               pIC50    6.54
21  c1coc(CN2CCCC(Nc3ccc4[nH]ncc4c3)C2)c1 (centres undefined)               pIC50    6.74
22     CCCN[C@H]1CC[C@H](Nc2cccc3cnccc23)CC1               pIC50    6.74
23    O=C(NCc1c(Cl)cccc1Cl)Nc1ccc2[nH]ncc2c1               pIC50     7.7
24  Nc1ccc(CN2CCCC(Nc3ccc4[nH]ncc4c3)C2)cc1 (centres undefined)               pIC50       8
25  CCCN1CCCC(Nc2ccc3[nH]ncc3c2)C1 (centres undefined)               pIC50    6.11
26                 c1cc2[nH]ncc2cc1NC1CCNCC1               pIC50    6.52
27  Nc1ccc(CN2CCC(Nc3cccc4cnccc34)C2)cc1 (centres undefined)               pIC50    6.63
28    Clc1ccccc1CN1CCC(Nc2ccc3[nH]ncc3c2)CC1               pIC50    6.36
29  c1ccc(CN2CCCC(Nc3cccc4cnccc34)C2)cc1 (centres undefined)               pIC50     6.7
30           O=C(CC1CCCCC1)Nc1ccc2[nH]ncc2c1               pIC50    6.05
31  Clc1cccc(CN2CCCC(Nc3ccc4[nH]ncc4c3)C2)c1 (centres undefined)               pIC50    7.72
32  Clc1ccc(CN2CCC(Nc3ccc4[nH]ncc4c3)CC2)cc1               pIC50    6.54
33  Fc1ccc(CN2CCCC(Nc3ccc4[nH]ncc4c3)C2)cc1F (centres undefined)               pIC50       8
34            O=C(Nc1ccc2[nH]ncc2c1)C1CCCCC1               pIC50     6.3
35  O=C(COc1c(Cl)cc(F)cc1Cl)Nc1ccc2[nH]ncc2c1               pIC50     6.3
36  c1ccc(CCN[C@H]2CC[C@H](Nc3cccc4cnccc34)CC2)cc1               pIC50    6.39
37      O=C(NCc1c(F)cccc1F)Nc1ccc2[nH]ncc2c1               pIC50    7.07
38  c1cc2[nH]ncc2cc1NC1CCNC1 (centres undefined)               pIC50       7
39  CC(C)CCCN1CCCC(Nc2cccc3cnccc23)C1 (centres undefined)               pIC50       7
40  Clc1ccccc1CN1CCC(Nc2ccc3[nH]ncc3c2)C1 (centres undefined)               pIC50    7.35
41  c1ccc(CN2CCCC(Nc3ccc4[nH]ncc4c3)C2)cc1 (centres undefined)               pIC50     7.7
42  c1ccc(CN2CCC(Nc3ccc4[nH]ncc4c3)C2)cc1 (centres undefined)               pIC50    7.49
43  Clc1ccc(CN2CCCC(Nc3ccc4[nH]ncc4c3)C2)cc1 (centres undefined)               pIC50    7.96
